conditions: Ebola virus entry assay, blue channel fluorescence
Calls of active or inactive are those of the source. How the calls were made is not given here.
Your answer must be one of the following: T for active, F for inactive

{"columns": ["molecule", "qualitative-label"],
 "data": [
  ["CCN(CC)CCOc1ccc(Cc2ccccc2)cc1", "T"],
  ["CN1CCOC(c2ccccc2)c2ccccc2C1 (stereo not given)", "F"],
  ["C[C@@H]1C[C@H]2[C@@H]3CCC4=CC(=O)C=C[C@]4(C)[C@@]3(F)[C@@H](O)C[C@]2(C)[C@H]1C(=O)CO", "F"],
  ["CC[C@H](O)C(C[C@H](C)N(C)C)(c1ccccc1)c1ccccc1", "T"]
]}

Now look at this one.
Qu. Tell me the assay call for COP(=O)(OC)OC=C(Cl)Cl please.
Ans. F

Origin of the recorded values: PubChem BioAssay (NCATS)
